Test system: NCI-H226 lung
assay.overview: NCI tumour cell line growth inhibition, 48 h; in the data active = GI50 below about 0.43 µM; inactive = the rest
Pick one and only one: True = active, False = inactive

Enquiry: For this compound, state the assay outcome: O=C1CCCCCCCC/C=C\CC(c2ccco2)O1 (stereo unspecified)
Return: False

Enquiry: Queued: CCOc1ccc(-c2nonc2NC(=O)c2cccc(C)c2)cc1OCC
Return: False

Enquiry: Queued: CC(C)(O)CS(=O)(=O)Nc1ccc2c(c1)CCN(C(=O)COc1cccnc1)C2
Return: False

Enquiry: Queued: O=c1ccn(C2OC(CO/N=C/c3ccc(O)c(O)c3O)C(O)C2O)c(=O)[nH]1 (stereo unspecified)
Return: False

Enquiry: Queued: CCC(CO)Nc1nc(NCc2ccccc2O)c2ncn(C(C)C)c2n1 (stereo unspecified)
Return: False

Enquiry: Queued: Cc1c(-c2c(-c3ccc(F)o3)sc3ncnc(O[C@H](Cc4ccccc4OCc4ccnn4CC(F)(F)F)C(=O)O)c23)ccc(OCCN2CCN(C)CC2)c1Cl
Return: False

Enquiry: Queued: COc1ccc(/C=C\c2cc(OC)c(OC)c(OC)c2)cc1OC(=O)c1cccc(Cn2cc(CCOC(=O)[C@H](N)Cc3cn(C)c4ccccc34)nn2)c1
Return: True

Enquiry: Queued: c1ccc2[nH]c(-c3ccc(NN=Nc4ccncc4)cc3)nc2c1
Return: False

Enquiry: Queued: C/C(=N\Nc1cc(C)c2cc(C)ccc2n1)c1ccccn1
Return: True

Enquiry: Queued: Cc1ccc(/C=C2/SC(Nc3nc(-c4csc(NC5=NC(=O)/C(=C\c6ccc(C)cc6)S5)n4)cs3)=NC2=O)cc1
Return: False

Enquiry: Queued: O=c1ccc2nc(-c3ccccc3)nn(-c3ccccn3)c-2c1
Return: False

---

For each of the compounds below, state its TGI.
Tested on: ACHN renal
assay.overview: NCI tumour cell line growth inhibition, 48 h

Enquiry: What does the data say about its TGI? Entry: COc1ccc(/C=C/C(=O)/C=C/c2ccc(OC)cc2)cc1
Return: > 100 µM

Enquiry: Queued: CCOC(=O)C(/C=N\C(=S)Nc1ccc(Cl)c(Cl)c1)=C(/O)c1ccccc1
Return: > 100 µM

Enquiry: Queued: CCc1c(C#N)c(S[C@@H](C(N)=O)c2ccccc2)nc(N(C)C)c1C#N
Return: > 100 µM

---

Tested on: A498 renal
assay.overview: NCI tumour cell line growth inhibition, 48 h
measure.name: TGI

Enquiry: TGI of C#CCC(Cc1cnc2nc(N)nc(N)c2n1)c1ccc(C(=O)N[C@@H](CCC(=O)O)C(=O)O)cc1 (stereo partly drawn) on A498 renal?
Return: > 100 µM

Enquiry: Queued: O=C(CCc1ccccc1)ON1C(=S)NC(c2ccccc2)(c2ccccc2)C1=S
Return: > 100 µM

Enquiry: Queued: CCCc1cc2c(=O)c(C(=O)OC)c[nH]c2cc1N(CC)CC
Return: > 100 µM

---

For each of the compounds below, state its TGI.
Test system: NCI-H23 lung
assay.overview: NCI tumour cell line growth inhibition, 48 h

Enquiry: What does the data say about its TGI? Entry: O=C(CN1CCN(CCCOc2c(-c3ccccc3)oc3ccccc3c2=O)CC1)Nc1ccc(Cl)cc1C(=O)c1ccccc1Cl
Return: 41.9 µM

Enquiry: Queued: Oc1ccccc1C=NCc1ccco1
Return: > 100 µM

Enquiry: Queued: Cc1ccc(NC(=O)CSc2nc(C)nc3c2sc(=S)n3-c2ccccc2)cc1
Return: > 10 µM

Enquiry: Queued: CC(=O)Nc1ccc(NC(=O)c2c(Cl)c(Cl)c(Cl)c(Cl)c2-c2nc3ccccc3[nH]2)cc1
Return: > 100 µM

Enquiry: Queued: c1ccc(Cc2nc(Cc3n[nH]c(Cc4ccccc4)n3)n[nH]2)cc1
Return: > 100 µM

Enquiry: Queued: O=c1cc2ccccc2nn1Cc1cccc(Cl)c1
Return: > 100 µM

Enquiry: Queued: C=CCN1C(=O)/C(=C/c2ccc(OC)cc2)NC1=S
Return: > 100 µM

Enquiry: Queued: O=C1NC(=O)C2C(=O)NC(=O)C1C2(c1ccccc1)c1cc[nH]c1 (stereo not drawn)
Return: > 100 µM

Enquiry: Queued: N=C(c1ccc2ccccc2c1)c1ccccc1Cc1ccccc1
Return: > 100 µM

Enquiry: Queued: N/C(=C\c1ccc(OCc2ccccc2)c(OCc2ccccc2)c1[N+](=O)[O-])C(=O)O
Return: > 100 µM

Enquiry: Queued: O=c1ccn(C2OC(CO/N=C/c3ccc(O)c(O)c3O)C(O)C2O)c(=O)[nH]1 (stereo not drawn)
Return: 49.6 µM

Enquiry: Queued: Cc1ccc(N=Nc2ccc(O)c(CN(C)C)c2)cc1C
Return: > 100 µM

Enquiry: Queued: CCOc1ccccc1NC(=O)CC1SC(=Nc2ccc([N+](=O)[O-])cc2)NC1=O (stereo not drawn)
Return: 35.2 µM

Enquiry: Queued: O=C(CC1(O)C(=O)Nc2c(Cl)ccc(Cl)c21)c1ccc2ccccc2c1 (stereo not drawn)
Return: 27 µM

Enquiry: Queued: CCCCCCCCCc1cc(-c2ccc(C=O)s2)sc1-c1ccc(C=O)s1
Return: 82.5 µM

Enquiry: Queued: CC(C)(C)c1cc(-c2cc(C(C)(C)C)n(-c3ccccc3)n2)nn1-c1ccccc1
Return: > 100 µM

Enquiry: Queued: Nc1nc(N)c(NC(=O)CCCO)c(=O)[nH]1
Return: > 100 µM

Enquiry: Queued: Oc1cc(Br)cc2cccnc12
Return: 31.2 µM

Enquiry: Queued: Cc1c(-c2c(-c3ccc(F)o3)sc3ncnc(O[C@H](Cc4ccccc4OCc4ccnn4CC(F)(F)F)C(=O)O)c23)ccc(OCCN2CCN(C)CC2)c1Cl
Return: 7.6 µM

Enquiry: Queued: COc1c(C)c2c(c(=O)c3c(C)cccc3n2C)c2c1c(=O)c1c(C)cccc1n2C
Return: > 10 µM

Enquiry: Queued: COc1c(OC)c(OC)c2c(c1OC)c(=O)c1ccccc1n2C
Return: > 100 µM

Enquiry: Queued: Oc1ccccc1/C=N/Nc1nc(N/N=C/c2ccccc2O)nc(N/N=C/c2ccccc2O)n1
Return: > 100 µM

Enquiry: Queued: Oc1cc(O)c2c(-c3c(O)c(-c4ccc(O)c(O)c4)[o+]c4cc(O)cc(O)c34)c(O)c(-c3ccc(O)c(O)c3)[o+]c2c1
Return: > 100 µM
